B1: LINE1-mini (parent)
chain: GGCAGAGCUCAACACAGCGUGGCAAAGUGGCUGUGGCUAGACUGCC

variants of: B1; assay: self-cleavage, relative activity (ratio to wild type); higher = more cleavage; in vitro, sequencing; the parent is a self-cleaving ribozyme
Answer each item with its documented self-cleavage.
One number for each entry.

[
  {
    "sequence": "GACAGAGCUCAACACAGCGUAGCAAAGUGGCUGUGGCUAGACUGCC [G2A G21A]",
    "self-cleavage": 2.98
  },
  {
    "sequence": "GGCAGAGCUUAACACAGCGUGGCAAAGUGUCUGUGGCUAGACUGCC [C10U G30U]",
    "self-cleavage": 0.59
  },
  {
    "sequence": "GGGAGAGCUCAACACAGCGUGGCAAAGUGGCUUUGGCUAGACUGCC [C3G G33U]",
    "self-cleavage": 0.2
  },
  {
    "sequence": "GGCAGAGCUCAACACAGCGUGGCAAAGUGGCUGUGGCUCGUCUGCC [A39C A41U]",
    "self-cleavage": 0.4
  }
]

// input: 2 variants below; output: self-cleavage for each
1. GGCAGAGCUCGACACAGCGUGGCAAAGUGGCUGUGGCUGGACUGCC [A11G A39G]
2. GGCAGAGCUCAACACAGCGUGCCAAAGUGGCUGUGGCUAGAAUGCC [G22C C42A]

0.03
0.13

// input: 7 variants below; output: self-cleavage for each
1. GGCAGAGCUCAACACAGCGCGGCAAAGUGGCUGAGGCUAGACUGCC [U20C U34A]
2. GGCAGAGCUCAACACAGCGUGGCAAAGUGGCUCUGGCAAGACUGCC [G33C U38A]
3. GGCAGAGCUCAACACAGCUUGGCAAAGUGGCUGUCGCUAGACUGCC [G19U G35C]
4. GGCUGAGCUCAACACAGCGUGGCAAAGUGGCUGUGGCUAGACCGCC [A4U U43C]
5. GGCAGAGCACAACACAGCGUGGCAAAGUGGCUGUGGCUAGAAUGCC [U9A C42A]
6. GGUAGAGCUCAACACAGCGUGGCAAAGUGGCUAUGGCUAGACUGCC [C3U G33A]
7. GGCAGAGCUCAACACAGCGUGGCAAAGUGUCUGUGGCUAGACCGCC [G30U U43C]

0.12
0.04
0.09
0.03
0.06
0.13
0.1
